Target: Recombinant human his-tagged IGF 1R extracellular domain protein (human) (UniProt P08069)
Assay: SPR, captured IgG, IGF-1R ECD-his analyte, dissociation pH 6
Quick reference: koff of the listed items.

| binder | koff, s⁻¹ |
| --- | --- |
| VRDN-02509 (antibody, V domains shown) VH: EVQLVQSGGGLVKPGGSLRLSCAASGFTFSSFAHHWVRQAPGKGLEWISVIDTRGATYYADSVKGRFTISRDNAKNSLYLQMNSLRAEDTAVYYCARLGNFYYGMDVWGQGTTVTVSS VL: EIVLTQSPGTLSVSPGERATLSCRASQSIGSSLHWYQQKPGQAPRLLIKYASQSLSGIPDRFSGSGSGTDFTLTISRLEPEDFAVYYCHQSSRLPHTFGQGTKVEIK | 1e-06 |
| VRDN-02511 (antibody, V domains shown) VH: EVQLVQSGGGLVKPGGSLRLSCAASGFTFSSFAMHWVRQAPGKGLEWISVIDHRGATYYADSVKGRFTISRDNAKNSLYLQMNSLRAEDTAVYYCARLGNFYYGMDVWGQGTTVTVSS VL: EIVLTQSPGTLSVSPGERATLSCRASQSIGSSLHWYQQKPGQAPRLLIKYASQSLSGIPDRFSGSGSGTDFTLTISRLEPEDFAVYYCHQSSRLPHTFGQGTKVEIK | 0.000672 |
